Each recorded value in this set is attributed to patent US7868026B2.

Biological target: CYP3A4 (Homo sapiens)
Experiment: Determination of IC50 against CYP3A4 by measurement of inhibition of testosterone metabolism (human liver microsomes, 6-β-OH-testosterone by LC-MS/MS)
Assay type: biochemical
Parameters: 0.1 mg/mL human liver microsomes
Conditions: read-out: IC50 (Testo.)
Listing of entries alongside the reported pIC50.
Note on units: pIC50 is unitless, being -log10 of a concentration expressed in mol/L.

CC(C)CCN(C)C(=O)c1ccccc1S(=O)(=O)Nc1cccnc1 :: 8.00

## Task Recorded pIC50 of CCCCCN(C)C(=O)c1ccccc1S(=O)(=O)Nc1cnccc1OCC , please.
## Result 7.72

====

Listing of entries alongside the reported pKi.
Target: CYP3A4 (Homo sapiens)
Experiment: Determination of compound Kiapp against recombinant CYP3A4 enzyme (BFC fluorescent substrate)
Type: biochemical
Settings: Super. enzyme preparation, read-out: Kiapp (BFC, Super.)
Note on units: pKi is unitless, being -log10 of a concentration expressed in mol/L.

Consider the reported pKi for these molecules:
CCC(C)(C)NC(=O)c1ccccc1S(=O)(=O)Nc1cnccc1OC :: 7.06
COc1cncc(NS(=O)(=O)c2ccccc2C(=O)NCc2cccc(Cl)c2)c1 :: 8.57

## Task State its pKi on CYP3A4 (Homo sapiens): COc1cncc(NS(=O)(=O)c2ccccc2C(=O)N(C)CCOc2ccccc2)c1
## Result 8.00

====

Molecular target: CYP3A4 (Homo sapiens, UniProt P08684)
Sequence (P08684 whole entry): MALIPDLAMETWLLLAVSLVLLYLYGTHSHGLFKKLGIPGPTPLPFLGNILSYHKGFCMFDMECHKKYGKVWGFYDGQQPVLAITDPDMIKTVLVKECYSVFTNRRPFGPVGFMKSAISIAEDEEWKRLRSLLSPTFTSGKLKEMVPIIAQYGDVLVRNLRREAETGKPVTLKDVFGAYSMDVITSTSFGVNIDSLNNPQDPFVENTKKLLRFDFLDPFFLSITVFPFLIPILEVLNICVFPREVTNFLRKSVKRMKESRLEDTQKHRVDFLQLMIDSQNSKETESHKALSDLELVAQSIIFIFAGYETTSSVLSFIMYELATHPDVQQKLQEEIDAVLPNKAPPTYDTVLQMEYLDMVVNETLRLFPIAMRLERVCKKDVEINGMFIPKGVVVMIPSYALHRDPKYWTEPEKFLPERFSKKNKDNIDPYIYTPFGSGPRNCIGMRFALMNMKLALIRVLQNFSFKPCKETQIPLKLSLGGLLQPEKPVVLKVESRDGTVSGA
Assay: Determination of compound Kiapp against recombinant CYP3A4 enzyme (BFC fluorescent substrate)
Assay type: biochemical
Details: Super. enzyme preparation, read-out: Kiapp (BFC, Super.)
Doc: threshold 0.02 µM (exclusive). Items with Ki beneath it return Met; others return Not met.

Example entries and their recorded answers appear below.
CCCCNC(=O)c1ccccc1S(=O)(=O)N(C)c1cccnc1 :: Not met
O=C(NCc1cccc(OC(F)F)c1)c1ccccc1S(=O)(=O)Nc1cccnc1 :: Met
CCCN(C)C(=O)c1ccccc1S(=O)(=O)Nc1cncc(OC)c1 :: Met
COc1cncc(NS(=O)(=O)c2ccccc2C(=O)N(CCO)C(C)C)c1 :: Not met

--- query ---
## Task For this compound, is Ki lower than 0.02 µM? CCC(C)NC(=O)c1ccccc1S(=O)(=O)Nc1cncc(N)c1 (stereo not drawn)
## Result Not met

====

Listing of entries alongside the reported log10 IC50.
Target: CYP3A4 (Homo sapiens, UniProt P08684)
Test: Determination of IC50 against CYP3A4 by measurement of inhibition of testosterone metabolism (human liver microsomes, 6-β-OH-testosterone by LC-MS/MS)
Assay type: biochemical
Parameters: 0.1 mg/mL human liver microsomes
Details: read-out: IC50 (Testo.)
Procedure: 2. Determination of IC50 Against CYP3A4 by Measurement of Inhibition of Testosterone Metabolism This assay was performed using a standard 96 well plate design. […] Quantitation of metabolite peak area ratio against an internal standard is determined by LC-MS/MS analysis. The production of 6-β-OH-testosterone from testosterone metabolism is determined after incubation for eight minutes by comparison to a standard curve generated for the metabolite […]
// do not treat as linear: log10 of IC50, unit nM

Consider the reported log10 IC50 for these molecules:
COc1cncc(NS(=O)(=O)c2ccccc2C(=O)N2CCC(c3ccccc3)CC2)c1 :: 1.49
Cc1cncc(NS(=O)(=O)c2ccccc2C(=O)NC(C)C2CC2)c1 (stereo not drawn) :: 1.63
CCCCCNC(=O)c1ccccc1S(=O)(=O)Nc1cncc(C)c1 :: 1.63
O=C(c1ccccc1S(=O)(=O)Nc1cccnc1)N1Cc2ccccc2C1 :: 1.45

Could you now consider this next molecule?
## Task Recorded log10 IC50 of CC(C)(CN1CCOCC1)NC(=O)c1ccccc1[S+]([O-])Cc1cccnc1 (stereo not drawn) , please.
## Result 2.62

====

Listing of entries alongside the reported log10 Ki.
Target: CYP3A4 (Homo sapiens)
Test: Determination of compound Kiapp against recombinant CYP3A4 enzyme (BFC fluorescent substrate)
Type: biochemical
Details: Baculo. enzyme preparation, read-out: Kiapp (BFC, Baculo.)
// do not treat as linear: log10 of Ki, unit nM

Consider the reported log10 Ki for these compounds:
CCC(C)CNC(=O)c1ccccc1S(=O)(=O)Nc1cncc(OC)c1 (stereo not drawn) :: 1.76
O=C(NCc1ccccc1)c1ccccc1S(=O)(=O)Nc1cccnc1 :: 2.43
COc1ccncc1NS(=O)(=O)c1ccccc1C(=O)NC(C)C1CC1 (stereo not drawn) :: 2.75
CN(Cc1ccc(F)c(F)c1)C(=O)c1ccccc1S(=O)(=O)Nc1cncc(F)c1 :: 2.42
CCCCN(C)C(=O)c1ccccc1S(=O)(=O)Nc1cncc(C)c1 :: 1.85
O=C(NCCc1ccccc1)c1ccccc1S(=O)(=O)Nc1cccnc1 :: 2.12

## Task State its log10 Ki on CYP3A4 (Homo sapiens): CC(C)CCN(C)C(=O)c1ccccc1S(=O)(=O)Nc1cccnc1
## Result 2.39

## Task Now consider Cc1cccc(CNC(=O)c2ccccc2S(=O)(=O)Nc2cccnc2)c1 .
## Result 2.31

## Task Now consider Cc1cncc(NS(=O)(=O)c2ccccc2C(=O)NC(C(C)C)C(C)C)c1 .
## Result 1.66

## Task Now consider CCCN(CC)C(=O)c1ccccc1S(=O)(=O)Nc1cncc(OC)c1 .
## Result 1.85

## Task Now consider CCCCCN(C)C(=O)c1ccccc1S(=O)(=O)Nc1cncc(C)c1 .
## Result 1.56

====

Target: CYP3A4 (Homo sapiens, UniProt P08684)
Assay: Determination of compound Kiapp against recombinant CYP3A4 enzyme (BFC fluorescent substrate)
Type: biochemical
Settings: Super. enzyme preparation, read-out: Kiapp (BFC, Super.)
Listing of entries alongside the reported Ki.
All answers are understood in nM, so give the number only.

## Task State its Ki on CYP3A4 (Homo sapiens, UniProt P08684): COc1cncc(N(C)S(=O)(=O)c2ccccc2C(=O)NCc2cccc(F)c2)c1
## Result 19.8

## Task Now consider COc1ccncc1NS(=O)(=O)c1ccccc1C(=O)NCCc1ccccc1OC(F)(F)F .
## Result 8.9

## Task Now consider Cc1cncc(NS(=O)(=O)c2ccccc2C(=O)NCc2cccc(F)c2)c1 .
## Result 13.1

## Task Now consider Cc1cncc(NS(=O)(=O)c2ccccc2C(=O)NCc2ccc(F)c(C(F)(F)F)c2)c1 .
## Result 1.2

====

Molecular target: CYP3A4 (Homo sapiens, UniProt P08684)
Experiment: Determination of IC50 against CYP3A4 by measurement of inhibition of midazolam metabolism (human liver microsomes, 1-hydroxymidazolam by LC-MS/MS)
Format: biochemical
Design: 0.1 mg/mL human liver microsomes
Settings: 2 μM midazolam, 0.1 mg/mL human liver microsomes
quantity measured: pIC50
Note on units: pIC50 is unitless, being -log10 of a concentration expressed in mol/L.

Consider the reported pIC50 for these compounds:
CCCCNC(=O)c1ccccc1S(=O)(=O)Nc1cncc(OCC)c1 :: 7.49
CCOc1cncc(NS(=O)(=O)c2ccccc2C(=O)NC(C)(C)CC)c1 :: 7.80
COc1cncc(NS(=O)(=O)c2ccccc2C(=O)N2CCC(C)CC2)c1 :: 7.62
Cc1cncc(NS(=O)(=O)c2ccccc2C(=O)NCc2ccc(C#N)cc2Cl)c1 :: 7.74
COc1cncc(NS(=O)(=O)c2ccccc2C(=O)N2CCCC(C)(C)C2)c1 :: 7.57

Could you now consider this next compound?
## Task Recorded pIC50 of Cc1cccc(CNC(=O)c2ccccc2S(=O)(=O)Nc2cccnc2)c1 , please.
## Result 7.60

====

Target: UniProtKB P08684
Assay: Determination of compound Kiapp against recombinant CYP3A4 enzyme (BFC fluorescent substrate)
Assay type: biochemical
Conditions: Baculo. enzyme preparation, read-out: Kiapp (BFC, Baculo.)
Listing of entries alongside the reported log10 of Ki.
// do not treat as linear: log10 of Ki, unit nM

Consider the reported log10 of Ki for these molecules:
CCC(C)NC(=O)c1ccccc1S(=O)(=O)Nc1cnccc1OC (stereo not drawn) :: 2.69
CCOc1ccncc1NS(=O)(=O)c1ccccc1C(=O)NCCOc1ccccc1 :: 2.03

## Task Recorded log10 of Ki of CCCCN(C)C(=O)c1ccccc1S(=O)(=O)Nc1cncc(OC)c1 , please.
## Result 1.45

## Task Now consider COc1ccncc1NS(=O)(=O)c1ccccc1C(=O)NCc1ccc(F)c(F)c1 .
## Result 2.00

## Task Now consider CCCCNC(=O)c1ccccc1S(=O)(=O)Nc1cncc(OCC)c1 .
## Result 1.89

## Task Now consider CCCCNC(=O)c1ccccc1S(=O)(=O)Nc1cccnc1 .
## Result 2.65

## Task Now consider COc1cncc(NS(=O)(=O)c2ccccc2C(=O)NCc2ccc3c(c2)CCO3)c1 .
## Result 2.42

====

Molecular target: CYP3A4 (Homo sapiens)
Experiment: Determination of compound Kiapp against recombinant CYP3A4 enzyme (BFC fluorescent substrate)
Format: biochemical
Details: Baculo. enzyme preparation, read-out: Kiapp (BFC, Baculo.)
Listing of entries alongside the reported pKi.
Note on units: pKi is unitless, being -log10 of a concentration expressed in mol/L.

CCC(C)NC(=O)c1ccccc1S(=O)(=O)Nc1cncc(N)c1 (centres unmarked) [Example 113] :: 6.16
COc1cncc(NS(=O)(=O)c2ccccc2C(=O)NCC2CCCC2)c1 [Example 375] :: 6.85

## Task Recorded pKi of CCOc1cncc(NS(=O)(=O)c2ccccc2C(=O)NCCC(C)C)c1 [Example 296] , please.
## Result 7.45

## Task Now consider COc1cncc(NS(=O)(=O)c2ccc(Cl)cc2C(=O)NCc2ccc(F)cc2)c1 [Example 310] .
## Result 6.85

## Task Now consider Cc1cncc(NS(=O)(=O)c2ccccc2C(=O)NCc2ccc(C)c(F)c2)c1 [Example 157] .
## Result 7.31
